- measured target: VIM-1 (Pseudomonas aeruginosa (strain ATCC 15692 / DSM 22644 / CIP 104116 / JCM 14847 / LMG 12228 / 1C / PRS 101 / PAO1))
- assay method text: biochemical
- protocol conditions: fluorescence assay, CCF2-FA substrate, 30 pM enzyme, 2 hours at 25° C.; read-out: VIM-1 IC50
quantity: IC50
Please answer using the number first and the unit second.

Query: Requested field: IC50. Item: NCCNS(=O)(=O)c1ccc(-c2cccc3oc(N)nc23)c(-c2nn[nH]n2)c1S(N)(=O)=O
Result: 0.0502 nM

Query: Given Nc1nc2c(-c3ccc(S(=O)(=O)N[C@H]4CCCNC4)c(S(N)(=O)=O)c3-c3nnn[nH]3)cccc2[nH]1 , state its recorded IC50.
Result: 0.904 nM

Query: Consider the compound shown here: Nc1cncc(-c2ccc(S(=O)(=O)N[C@@H]3CCNC3)c(S(N)(=O)=O)c2-c2nn[nH]n2)c1 What is its recorded IC50?
Result: 0.209 nM

====

Provide the reported pIC50 of each item.
- measured target: NDM-1 (Klebsiella pneumoniae)
- Sequence (C7C422 whole entry, looked up, species assumed): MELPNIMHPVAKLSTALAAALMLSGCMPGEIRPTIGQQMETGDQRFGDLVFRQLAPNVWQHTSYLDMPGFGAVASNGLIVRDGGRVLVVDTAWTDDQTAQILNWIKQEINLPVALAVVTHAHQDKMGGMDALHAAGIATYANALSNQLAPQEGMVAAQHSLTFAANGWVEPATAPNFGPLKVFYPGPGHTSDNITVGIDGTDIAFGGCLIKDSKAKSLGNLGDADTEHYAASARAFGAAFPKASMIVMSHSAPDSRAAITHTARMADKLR
- assay method text: biochemical
- Type: biochemical
- protocol conditions: fluorescence assay, CCF2-FA substrate, 1 pM enzyme, 2 hours at 25° C.; read-out: NDM-1 IC50
FYI, pIC50 means -log10 of a concentration in mol per litre.

Query: Item under review: Nc1nc2c(-c3ccc(S(=O)(=O)N[C@@H]4CNC[C@@H]4N)c(S(N)(=O)=O)c3-c3nn[nH]n3)cccc2[nH]1 . Reported pIC50?
Result: 10.25

Query: Fill in: pIC50 of Nc1nc2c(-c3ccc(S(=O)(=O)NCC4(N)CCOCC4)c(S(N)(=O)=O)c3-c3nnn[nH]3)cccc2s1.O=CO [Example 115, formate] is ___
Result: 10.22

Query: Could you share which pIC50 value was measured for NCCNS(=O)(=O)c1ccc(-c2cnc3cc[nH]c3c2)c(-c2nn[nH]n2)c1S(N)(=O)=O ?
Result: 9.81

Query: Give its pIC50 value. Item: CC1(NS(=O)(=O)c2ccc(-c3cccc4sc(N)nc34)c(-c3nnn[nH]3)c2S(N)(=O)=O)CCCNC1 (stereo not drawn)
Result: 10.07

Query: Returns the measured pIC50 for the input molecule. Input: Nc1nc2c(-c3ccc(S(=O)(=O)N[C@H]4CCNC4)c(S(N)(=O)=O)c3-c3nnn[nH]3)cccc2s1
Result: 10.12

Query: State the recorded pIC50 for this entry: NCCNS(=O)(=O)c1ccc(-c2cccc3sc(CN)nc23)c(-c2nn[nH]n2)c1S(N)(=O)=O
Result: 9.71

Query: // pIC50 lookup, key: C[N+]1(C)CC[C@H](NS(=O)(=O)c2ccc(-c3cccc4[nH]c(N)nc34)c(-c3nn[n-]n3)c2S(N)(=O)=O)C1
Result: 10.24

Query: Reported pIC50, molecule Nc1nc2c(-c3ccc(S(=O)(=O)N4CCNCC4)c(S(N)(=O)=O)c3-c3nn[nH]n3)cccc2s1 : ____
Result: 9.73

Query: Which pIC50 value is on record for NCCNS(=O)(=O)c1ccc(-c2cccc3[nH]c(CN)nc23)c(-c2nn[nH]n2)c1S(N)(=O)=O ?
Result: 9.71

====

- measured target: UniProtKB C7C422
- assay method text: biochemical
- Type: biochemical
- protocol conditions: fluorescence assay, CCF2-FA substrate, 1 pM enzyme, 2 hours at 25° C.; read-out: NDM-1 IC50
quantity: pIC50
Lab note: report pIC50 as minus log10 of the concentration in molar units, number only.

Query: Dear colleague, I am looking for the recorded pIC50 of the following molecule: NCCNS(=O)(=O)c1ccc(-c2cccc3[nH]nnc23)c(-c2nn[nH]n2)c1S(N)(=O)=O
Result: 10.19

Query: Give its pIC50 value. Item: NS(=O)(=O)c1ccc(-c2cccc3[nH]c(C(=O)O)nc23)c(-c2nn[nH]n2)c1S(N)(=O)=O
Result: 9.91

Query: Need pIC50 of NC(=O)[C@H](N)CNS(=O)(=O)c1ccc(-c2cccc3[nH]c(N)nc23)c(-c2nn[nH]n2)c1S(N)(=O)=O , thanks.
Result: 10.12

Query: What value of pIC50 has been recorded for this entry: Nc1ncc(-c2ccc(S(=O)(=O)N[C@H]3CNC[C@H]3N)c(S(N)(=O)=O)c2-c2nn[nH]n2)s1
Result: 9.14

Query: Could you share which pIC50 value was measured for NS(=O)(=O)c1c(S(=O)(=O)N[C@@H]2CCNC2)ccc(-c2cnc3ccccn23)c1-c1nnn[nH]1 ?
Result: 10.06

Query: Data request, read-out pIC50, for CN1CC[C@@H](NS(=O)(=O)c2ccc(-c3cccc4[nH]c(N)nc34)c(-c3nn[nH]n3)c2S(N)(=O)=O)C1
Result: 10.30

Query: # query: pIC50 of entry CN1CC(NS(=O)(=O)c2ccc(-c3cccc4[nH]c(N)nc34)c(-c3nn[nH]n3)c2S(N)(=O)=O)C1
Result: 10.38

Query: Look up pIC50 for this molecule: C[C@@H](N)CNS(=O)(=O)c1ccc(-c2cccc3sc(N)nc23)c(-c2nn[nH]n2)c1S(N)(=O)=O
Result: 10.22

Query: Using the record for Nc1ccc(-c2ccc(S(=O)(=O)NC[C@H](N)CO)c(S(N)(=O)=O)c2-c2nn[nH]n2)cn1 , report its pIC50.
Result: 9.48

Query: Could you share which pIC50 value was measured for CN1CCC(CNS(=O)(=O)c2ccc(-c3cccc4sc(N)nc34)c(-c3nnn[nH]3)c2S(N)(=O)=O)C1.O=C(O)C(F)(F)F (stereo not shown) [Example 102, 2,2,2-trifluoroacetate] ?
Result: 10.49

Query: Item under review: NC[C@@H](N)CNS(=O)(=O)c1ccc(-c2cccc3[nH]c(N)nc23)c(-c2nn[nH]n2)c1S(N)(=O)=O . Reported pIC50?
Result: 10.23

Query: Fill blank: measured pIC50 of the molecule Nc1nc2c(-c3ccc(S(=O)(=O)N4CC[C@H](N)C4)c(S(N)(=O)=O)c3-c3nnn[nH]3)cccc2s1 is ____.
Result: 9.01

Query: Data request, read-out pIC50, for C[C@@H](N)c1nc2c(-c3ccc(S(=O)(=O)N[C@@H]4CCNC4)c(S(N)(=O)=O)c3-c3nn[nH]n3)cccc2[nH]1
Result: 10.25

====

- measured target: NDM-1 (Klebsiella pneumoniae)
- assay method text: biochemical
- Format: biochemical
- protocol conditions: fluorescence assay, CCF2-FA substrate, 1 pM enzyme, 2 hours at 25° C.; read-out: NDM-1 IC50
quantity: IC50 (nM)
Only the number, expressed in nM, is required.

Query: Tell me reported IC50 for CC[C@H](CN)NS(=O)(=O)c1ccc(-c2cccc3[nH]c(N)nc23)c(-c2nn[nH]n2)c1S(N)(=O)=O , tested with NDM-1 (Klebsiella pneumoniae).
Result: 0.0241

Query: Query IC50 on NDM-1 (Klebsiella pneumoniae) for NCc1nc2cc(-c3ccc(S(=O)(=O)NC[C@@H](O)CN)c(S(N)(=O)=O)c3-c3nn[nH]n3)ccc2[nH]1
Result: 0.223

Query: Item: NS(=O)(=O)c1c(S(=O)(=O)N[C@H]2CCNC2)ccc(-c2cccc3[nH]cnc23)c1-c1nn[nH]n1 Test system: NDM-1 (Klebsiella pneumoniae) Read-out: IC50 Value: ?
Result: 0.0764

Query: Under NDM-1 (Klebsiella pneumoniae): IC50 value of NCc1csc(Nc2cccc(-c3ccc(S(=O)(=O)N[C@@H]4CCNC4)c(S(N)(=O)=O)c3-c3nn[nH]n3)c2)n1 ?
Result: 0.0873

====

- measured target: UniProt C7C422
- assay method text: biochemical
- Assay type: biochemical
- protocol conditions: fluorescence assay, CCF2-FA substrate, 1 pM enzyme, 2 hours at 25° C.; read-out: NDM-1 IC50
quantity: pIC50
Lab note — pIC50 values are minus log10 of concentrations in M.

Query: # lookup: pIC50 of NS(=O)(=O)c1ccc(-c2ccc(S(=O)(=O)N[C@@H]3CCNC3)c(S(N)(=O)=O)c2-c2nnn[nH]2)cc1 [Example 135]
Result: 9.87

Query: Quick one: pIC50 of Nc1nc2c(-c3ccc(S(=O)(=O)NC4CCC5OC4CC5N)c(S(N)(=O)=O)c3-c3nnn[nH]3)cccc2s1.O=C(O)C(F)(F)F (centres unmarked) [Example 95, 2,2,2-trifluoroacetate] ?
Result: 10.57

Query: Quick one: pIC50 for Nc1ncccc1-c1ccc(S(=O)(=O)N[C@H]2C[C@@H]2N)c(S(N)(=O)=O)c1-c1nn[nH]n1 [Example 216] ?
Result: 9.63

Query: pIC50 for C[C@H](CN)NS(=O)(=O)c1ccc(-c2cccc(N)n2)c(-c2nn[nH]n2)c1S(N)(=O)=O [Example 318] ?
Result: 9.80

Query: I'd like to know its pIC50. The molecule in question is C[C@@H](N)CNS(=O)(=O)c1ccc(-c2cccc3[nH]c(N)nc23)c(-c2nn[nH]n2)c1S(N)(=O)=O [Example 185]
Result: 10.32
